Molecular target: µ-opioid receptor (MOR), Human-ORPM1 (human, UniProt P35372 1-400)
Sequence (P35372 whole entry): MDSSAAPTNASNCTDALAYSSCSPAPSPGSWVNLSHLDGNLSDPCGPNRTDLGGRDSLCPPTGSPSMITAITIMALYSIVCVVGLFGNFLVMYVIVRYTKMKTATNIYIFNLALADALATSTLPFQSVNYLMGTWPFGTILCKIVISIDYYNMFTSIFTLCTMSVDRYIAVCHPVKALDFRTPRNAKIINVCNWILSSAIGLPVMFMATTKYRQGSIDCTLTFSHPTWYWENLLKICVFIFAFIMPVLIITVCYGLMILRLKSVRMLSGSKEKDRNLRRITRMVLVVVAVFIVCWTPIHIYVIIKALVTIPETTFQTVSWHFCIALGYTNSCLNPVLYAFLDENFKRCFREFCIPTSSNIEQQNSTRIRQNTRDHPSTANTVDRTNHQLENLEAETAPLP
Assay: cell-based or functional assay
Square brackets hold non-standard residues; d marks the D form. Phe(2,6-Me2,4-CONH2) = Cc1cc(C(N)=O)cc(C)c1C[C@H](N)C(=O)O; Dmt = Cc1cc(O)cc(C)c1C[C@H](N)C(=O)O; β3hF = N[C@H](CC(=O)O)Cc1ccccc1; Aib = CC(C)(N)C(=O)O; Sar = CNCC(=O)O
Provide the reported MOR EC50 of each item.

Give one value of MOR EC50 per listed binder.
1. H-[Dmt][dA][Aib][β3hF][Sar]-NH2 (SMILES Cc1cc(O)cc(C)c1C[C@H](N)C(=O)N[C@H](C)C(=O)NC(C)(C)C(=O)N[C@H](CC(=O)N(C)CC(N)=O)Cc1ccccc1) [H-DMT-a-Aib-bhF-Sar-NH2]
2. H-[Phe(2,6-Me2,4-CONH2)][dT]G[β3hF][Sar]-NH2 (SMILES Cc1cc(C(N)=O)cc(C)c1C[C@H](N)C(=O)N[C@@H](C(=O)NCC(=O)N[C@H](CC(=O)N(C)CC(N)=O)Cc1ccccc1)[C@H](C)O) [H-Phe(DMC)-(D)Thr-G-bhF-Sar-NH2]

[out]
≤ 1 nM
≤ 10 nM
